B1: ZNF449 (parent)
chain: RIHSGEEPHKCPECGKRFLRSSDL

Variants of: B1
Procedure details: protein stability index of a GFP-peptide fusion (GPS, HEK-293T) (PSI 1-6); higher = more stable;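 further: lentivirally expressed fusions sorted by FACS into six bins by GFP to DsRed ratio, PSI derived from sequencing read proportions per bin multiplied by bin number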
Experimental setup: c terminus: a fixed tail appended
Rule: protein stability index of 3 or more gives yes (1); anything lower gives no (0).

Previously resolved entries follow.
Input line: Does protein stability index meet or surpass 3 for "F18L" ?
Output line: no (0)

Input line: Tell me whether protein stability index is at least 3 here: "P8M"
Output line: yes (1)

Continuing:
Input line: Does "S4K" have a reported protein stability index of at least 3?
Output line: yes (1)

Input line: Given "E6Y" , state whether its protein stability index is at least 3.
Output line: no (0)

Input line: Determine whether measured protein stability index meets or exceeds 3 for "E6T"
Output line: no (0)

Input line: Check this variant for protein stability index at or above 3: "I2C"
Output line: yes (1)

Input line: Tell me whether protein stability index is at least 3 here: "G15Y"
Output line: yes (1)

Values compiled from the supplement of paper PMC10567573.
